The measurements presented in this section are drawn from ChEMBL document CHEMBL3758103.

Tested on: Jurkat
EXPERIMENT_NOTES: Cytotoxicity against human Jurkat cells assessed as cell growth inhibition after 48 hrs by MTT assay
Assay type: functional, cell-based
pIC50: −log10 of the molar value.
QUANTITY_MEASURED: pIC50

# ITEM_SMILES, MEASURED_ON, VALUE_MODIFIER, RESULT_VALUE
records = [
    ("CC(=O)Oc1cc2c(cc1C(C)C)CC[C@H]1[C@](C)(CN3C(=O)c4ccccc4C3=O)CCC[C@]21C", "Jurkat", "<", 4.30),
    ("CC(=O)O[C@H]1C(=O)[C@@]2(C)[C@H]([C@H](OC(=O)c3ccccc3)[C@]3(O)C[C@H](OC(=O)[C@H](O)[C@@H](NC(=O)c4ccccc4)c4ccccc4)C(C)=C1C3(C)C)[C@]1(OC(C)=O)CO[C@@H]1C[C@@H]2O", "Jurkat", "=", 9.30),
    ("CC(C)c1cc2c(cc1O)[C@@]1(C)CCC[C@@](C)(CN)[C@@H]1CC2", "Jurkat", "=", 4.31),
    ("CC(=O)Oc1cc2c(cc1C(C)C)CC[C@H]1[C@](C)(CN3C(=O)c4c(Cl)c(Cl)c(Cl)c(Cl)c4C3=O)CCC[C@]21C", "Jurkat", "<", 4.40),
    ("CC(=O)Oc1cc2c(cc1C(C)C)C(=O)C[C@H]1[C@](C)(CN3C(=O)c4c(Cl)c(Cl)c(Cl)c(Cl)c4C3=O)CCC[C@]21C", "Jurkat", "=", 4.91),
    ("COc1cccc2c1C(=O)c1c(O)c3c(c(O)c1C2=O)C[C@@](O)(C(=O)CO)C[C@@H]3O[C@H]1C[C@H](N)[C@H](O)[C@H](C)O1", "Jurkat", "=", 7.92),
    ("CC(C)c1cc2c(cc1O)[C@@]1(C)CCCC(C)(C)[C@@H]1CC2", "Jurkat", "=", 4.32),
]
